This collection of values is drawn from ChEMBL document CHEMBL1149707.

Molecular target: UniProt:P35372
Sequence (P35372 whole entry): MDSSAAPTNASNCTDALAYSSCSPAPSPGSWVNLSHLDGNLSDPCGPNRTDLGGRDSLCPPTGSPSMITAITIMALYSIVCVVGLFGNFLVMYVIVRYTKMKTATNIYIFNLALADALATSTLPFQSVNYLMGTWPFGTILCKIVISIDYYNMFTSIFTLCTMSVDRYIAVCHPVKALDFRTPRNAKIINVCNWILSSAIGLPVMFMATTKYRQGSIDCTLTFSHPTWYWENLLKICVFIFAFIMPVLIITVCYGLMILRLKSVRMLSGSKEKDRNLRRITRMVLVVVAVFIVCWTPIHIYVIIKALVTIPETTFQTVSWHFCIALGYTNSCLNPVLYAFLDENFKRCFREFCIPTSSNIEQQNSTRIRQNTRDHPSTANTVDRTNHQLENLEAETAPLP
Assay: Antagonist activity at human mu opioid receptor expressed in CHO cells by [35S]GTP-gamma-S binding assay
Assay type: functional, cell-based
Recorded Ki for the following molecules

Previously resolved entries follow.
Problem: Please give the measured Ki for this molecule: NC(=O)c1ccc(Oc2ccc(CCNCCc3ccccc3)cc2)nc1
Solution: 16.6 nM

Problem: How about NC(=O)c1ccc(Oc2ccc(CCNCCCc3ccccc3)cc2)nc1 ?
Solution: 18.5 nM

Problem: How about NC(=O)c1ccc(Oc2ccc(CNCCc3ccccc3)cc2)cn1 ?
Solution: 0.44 nM

Problem: How about NC(=O)c1ccc(Oc2ccc(CCNCc3ccccc3)cc2)nc1 ?
Solution: 2.25 nM

Problem: How about NC(=O)c1ccc(Oc2ccc(CNCCc3ccccc3)cc2)nc1 ?
Solution: 0.07 nM

***
Problem: Please give the measured Ki for this molecule: NC(=O)c1ccc(Oc2ccc(CNCc3ccccc3)cc2)nc1
Solution: 4.09 nM
